test system: LOUCY cells; test: Flow cytometry: annexin V/DAPI apoptosis and bead-based absolute cell count, LOUCY; set-up: species or system human; conditions: Homo sapiens, 120 h, Table 1; Loucy, Compound I single agent, 5 days
testReadout: IC50 (nM)

# molecule, testReadout, unitText, experimentalResult
rows = [
    ("C[C@@H]1CN(CC(=O)N2CC(C)(C)c3nc(CO)c(Cc4ccc(F)cc4)cc32)[C@@H](CN2CCOC[C@H]2C)CN1 [Compound I]", "IC50", "nM", 190),
]

Origin of values: patent US20250186451A1
